# Test target: CDK4/cyclin D3 (Homo sapiens, UniProt P11802)
# Construct: purchased Carna Biosciences, Inc. QS S Assist CDK4/Cyclin D3_FP Kit
# Sequence (P11802 whole entry): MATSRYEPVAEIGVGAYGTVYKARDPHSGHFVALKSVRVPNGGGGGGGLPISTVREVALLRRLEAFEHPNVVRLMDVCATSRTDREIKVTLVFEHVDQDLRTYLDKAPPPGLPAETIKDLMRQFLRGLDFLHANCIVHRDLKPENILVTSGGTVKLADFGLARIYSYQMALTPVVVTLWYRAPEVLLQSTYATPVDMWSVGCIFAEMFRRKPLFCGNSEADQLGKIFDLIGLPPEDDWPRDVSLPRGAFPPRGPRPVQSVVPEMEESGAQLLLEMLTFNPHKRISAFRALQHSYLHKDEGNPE
# Sequence (P30281 whole entry partner): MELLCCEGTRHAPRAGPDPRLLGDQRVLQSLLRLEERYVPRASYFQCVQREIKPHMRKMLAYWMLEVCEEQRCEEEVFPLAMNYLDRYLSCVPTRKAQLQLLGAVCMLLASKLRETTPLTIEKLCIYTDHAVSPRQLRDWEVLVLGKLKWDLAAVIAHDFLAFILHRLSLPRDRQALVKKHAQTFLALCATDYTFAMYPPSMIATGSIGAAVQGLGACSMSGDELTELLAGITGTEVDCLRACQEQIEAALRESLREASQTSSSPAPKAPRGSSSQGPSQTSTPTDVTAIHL
# Assay notes: Human CDK4/cyclin D3 inhibitory activity (QS S Assist CDK4/Cyclin D3_FP Kit, IMAP fluorescence polarization)
# Type: biochemical
# Condition: Human CDK4/cyclin D3 inhibitory activity; read-out: CDK4 Activity symbol
Property: IC50

Q: // lookup IC50 for CO[C@H](C)c1cc2cnc(Nc3ccc(OCCN(C)C)cn3)nc2c(NC(C)C)n1
Result: < 0.01 µM

Q: # IC50 lookup, item COC(C)c1cc2cnc(Nc3ccc(OCC4(N)CC4)cn3)nc2c(NC(C)C)n1 (stereo not shown)
Result: < 0.01 µM

Q: Data request, read-out IC50, for C[C@@H](O)c1cc2cnc(Nc3ccc(CN4CCNCC4)cn3)nc2c(N[C@H]2CC[C@H](C(=O)O)CC2)n1
Result: < 0.01 µM

Q: Given CO[C@H](C)c1cc2cnc(Nc3ccc(N4CCC(O)C4)nn3)nc2c(NC(C)C)n1 (stereo partly shown) , state its recorded IC50.
Result: 0.01 to 0.1 µM
